test.target: SARS-CoV-2 Spike Protein (S1 Subunit, His Tag) (Sino 40591-V08H) (SARS-CoV-2, UniProt P0DTC2 16-685)
measurement.notes: Luminex bead assay, supernatant on antigen microspheres
attribute.measured: Binding signal (MFI)
Answers are plain numbers, in MFI.

Before answering, review these 6 worked examples.
| binder | Binding signal (MFI) |
| --- | --- |
| mAb10964 (antibody, V domains shown) VH: QVQLQESGPGLVKPSETLSLTCTVSGGSINNYYWIWIRQPPGKGLEWIGYIYHSGSTNYNPSLKSRVTISVDTSKNQFSLKVSSVTAADTAVYYCANMVRGVYEDDYWGQGTLVTVSS VL: DIQMTQSPSSLSASVGDRVTITCRASQSISNYLNWYQQKPGKAPKLLIFAASSLRSGVPSRFSGSGSGTDFTLTISSLHPEDFATYYCQQNYNTPLTFGPGTKVDIKR | 24200 |
| mAb10971 (antibody, V domains shown) VH: EVQLVESGGGLIQPGGSLRLSCAASGVTVSSNYMSWVRQAPGKGLEWVSVIYSGGSTFYSDSVKGRFSISRDNSKNTLYLQMNSLRAEDTAVYYCARDLYYYGMDVWGQGTTVTVSS VL: DIQLTQSPSFLSASVGDRVTITCRASQGISTYLAWYQQKPGKAPKLLIYAASTLQSGVPSRFSGSGSGTEFTLTISSLQPEDFATYYCQQLDSYPGLTFGGGTKVEIKR | 21600 |
| mAb10954 (antibody, V domains shown) VH: EVQLVESGGGLVQPGGSLRLSCAASGITVSSNYMSWVRQAPGKGLEWVSLIYSGGSTYYADSVKGRFTISRDNSKNTLYLQMNSLRVEDTAVYYCARDHGMAAAGYNYWGQGTLVTVSS VL: DIQMTQSPSSLSASVGDRVTITCQASQDINKYLNWYQQKPGKAPKLLIYDASNLETGVPSRFSGSGSGTDFTFTINSLQPEDFATYFCQQYDNLPPAFGQGTKVEIKR | 21300 |
| mAb10989 (antibody, V domains shown) VH: QVQLVQSGAEVKKPGASVKVSCKASGYIFTGYYMHWVRQAPGQGLEWMGWINPNSGGANYAQKFQGRVTLTRDTSITTVYMELSRLRFDDTAVYYCARGSRYDWNQNNWFDPWGQGTLVTVSS VL: QSALTQPASVSGSPGQSITISCTGTSSDVGTYNYVSWYQQHPGKAPKLMIFDVSNRPSGVSDRFSGSKSGNTASLTISGLQAEDEADYYCSSFTTSSTVVFGGGTKLTVLG | 14200 |
| mAb10967 (antibody, V domains shown) VH: EVQLVESGGGLVQPGGSLRLSCAASGFTVSSNYMSWVRQAPGKGLEWVSVIYPGGSTFYADSVKGRFTISRDNSKNTLYLQMNSLRAEDTAVYYCARDQRDFAWGQGTLVTVSS VL: DIQMTQSPSSLSASVGDRVTITCQASQDISNYLNWYQQKPGKAPKLLIYDASNLETGVPSRFSGSGSGTDFTFTISGLQPEDIATYYCQQYDNLPPTFGQGTRLEIKR | 21900 |
| mAb10957 (antibody, V domains shown) VH: EVQLVESGGGLVQPGGSLRLSCAASGVTVSSNYMSWVRQAPGKGLEWVSVIYSGGSTFYADSVKGRFTISRDNSKNTLFLQMNSLRIEDTAVYYCARDLGPYGMDVWGQGTTVTVSS VL: DIQLTQSPSFLSASVGDRVTITCRASQGISSYLAWYQQKPGKAPKLLIYAASTLQSGVPSRFSGSGSGTQFILTISSLQPEDFATYYCQQLNSYPGFTFGPGTKVDIKR | 12000 |

Lab note: mAb10986 (antibody, V domains shown) VH: EVQLVESGGGLVQPGGSLRLSCAASEFTVSSNYMSWVRQAPGKGLEWVSVIYSGGSTFYADSVKGRFTISRDNSKNTLYLQMNSLRAEDTAVYYCARALPYGDLHFDYWGQGTLVTVSS VL: QSVLTQPPSVSGAPGQRVTISCTGSSSNIGTGYDVHWYQQLPGTAPKLLIYGNTNRPSGVPDRFSGSKSGTSASLAITGLQAEDEADYYCQSYDSSLSDSYVFGTGTKVTVLG gave Binding signal (MFI) of 19100
